# System: RIPK4;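 also: KINOMEscan kinase panel screen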
# study-conditions: concentration: 1 μM, replicates: in singlicate; n = 1
Catalogue of %Inh readings, one per entry.
Write it as a number; the unit % goes unstated.

The recorded %Inh for CS(=O)(=O)Cc1ccc(Nc2nccc(-c3c(-c4cccc(NC(=O)C5CCCCC5)c4)nn4ncccc34)n2)cc1 is 44

The recorded %Inh for Cc1nccc(-c2c(-c3ccc(F)cc3)ncn2CCCN2CCOCC2)n1.Cl is 33

The recorded %Inh for CC[C@@H]1CO[C@H](C(=O)Nc2ccccc2)CN1c1cc(-c2ccc3c(N)n[nH]c3c2)nc(NC)n1 is 0

The recorded %Inh for Fc1ccc(-c2nc3n(c2-c2ccncc2)CCS3)cc1 is 0

The recorded %Inh for CN1c2ccc(-c3ccc(C(N)=O)cc3)cc2-c2[nH]ncc2S1(=O)=O is 0

The recorded %Inh for Cn1cnc2c(N)ncnc21 is 0

The recorded %Inh for CCn1c(-c2c(N)noc2C)nc2cnccc21 is 25

The recorded %Inh for COc1ccc(Nc2nccc(N3CCC(NC(=O)C(C)c4ccc(Cl)cc4)CC3)n2)cc1 (centres unmarked) is 0

Further cases:
The recorded %Inh for CC(C)c1cc(-c2ccc3c(N)n[nH]c3c2)nc(N)n1 is 4

The recorded %Inh for CNC(=O)c1ccc(C)c(-n2c(C)cc(OCc3ccc(F)cc3F)c(Br)c2=O)c1 is 0
